test system: 521955-158-R2-J5-PDC complex spheroid growth, % test/control; experiment: Anticancer human tumor 521955-158-R2-J5-PDC patient-derived pancreatic carcinoma cell line growth inhibition [Asc]; settings: second compound 0.1 µM; first compound 3.16 µM; stronger effect = lower value
// reported viability, T/C per item

>  <compound>
C=C(F)C(=O)N1CCN(c2nc(OCC3CCCN3C)nc3c2CCN(c2cccc4cccc(Cl)c24)C3)CC1CC#N (stereo not drawn) + CNC(C)C(=O)NC1CN(S(=O)(=O)c2cccc(S(=O)(=O)N3CCC4CCC(C(=O)NC(c5ccccc5)c5ccccc5)N4C(=O)C(NC(=O)C(C)NC)C3)c2)CCC2CCC(C(=O)NC(c3ccccc3)c3ccccc3)N2C1=O

>  <outputUnit>
%

>  <viability, T/C>
98.2

$$$$
>  <compound>
C#Cc1c(F)ccc2cc(O)cc(-c3ncc4c(N5CC6CCC(C5)N6)nc(OCC56CCCN5CC(F)C6)nc4c3F)c12 (stereo not drawn) + Cc1c(S(C)(=O)=O)c(-c2cc(F)cc(N3CCN(c4ccc(NS(=O)(=O)c5ccc(NC(CCN6CCC(C(=O)OCCCP(=O)(O)O)CC6)CSc6ccccc6)c(S(=O)(=O)C(F)(F)F)c5)cc4)CC3)c2)c(-c2ccc(Cl)cc2)n1C(C)C

>  <outputUnit>
%

>  <viability, T/C>
38.5

$$$$
>  <compound>
C=C(F)C(=O)N1CCN(c2nc(OCC3CCCN3C)nc3c2CCN(c2cccc4cccc(Cl)c24)C3)CC1CC#N (stereo not drawn) + Cc1c(S(C)(=O)=O)c(-c2cc(F)cc(N3CCN(c4ccc(NS(=O)(=O)c5ccc(NC(CCN6CCC(C(=O)OCCCP(=O)(O)O)CC6)CSc6ccccc6)c(S(=O)(=O)C(F)(F)F)c5)cc4)CC3)c2)c(-c2ccc(Cl)cc2)n1C(C)C

>  <outputUnit>
%

>  <viability, T/C>
101

$$$$

----------
test system: 521955-158-R2-J5-PDC complex spheroid growth, % test/control; experiment: Anticancer human tumor 521955-158-R2-J5-PDC cell line growth inhibition [Asc]; details: second compound 1 µM; first compound 1 µM; stronger effect = lower value;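 further: spheroids exposed to agents for 7 days before readout; 100% = DMSO vehicle control viability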
Friendly reminder: viability, T/C below 80% is yes (1), at or above is no (0).

>  <compound>
CNC(C)C(=O)NC1CN(S(=O)(=O)c2cccc(S(=O)(=O)N3CCC4CCC(C(=O)NC(c5ccccc5)c5ccccc5)N4C(=O)C(NC(=O)C(C)NC)C3)c2)CCC2CCC(C(=O)NC(c3ccccc3)c3ccccc3)N2C1=O (stereo not given) + Cc1c(S(C)(=O)=O)c(-c2cc(F)cc(N3CCN(c4ccc(NS(=O)(=O)c5ccc(NC(CCN6CCC(C(=O)OCCCP(=O)(O)O)CC6)CSc6ccccc6)c(S(=O)(=O)C(F)(F)F)c5)cc4)CC3)c2)c(-c2ccc(Cl)cc2)n1C(C)C

>  <targetSystem>
521955-158-R2-J5-PDC complex spheroid growth, % test/control

>  <label>
yes (1)

$$$$
>  <compound>
COc1c(OCCCN2CCOCC2)ccc2c3n(c(=NC(=O)c4cnc(N)nc4)nc12)CCN3 + Cc1c(S(C)(=O)=O)c(-c2cc(F)cc(N3CCN(c4ccc(NS(=O)(=O)c5ccc(NC(CCN6CCC(C(=O)OCCCP(=O)(O)O)CC6)CSc6ccccc6)c(S(=O)(=O)C(F)(F)F)c5)cc4)CC3)c2)c(-c2ccc(Cl)cc2)n1C(C)C

>  <targetSystem>
521955-158-R2-J5-PDC complex spheroid growth, % test/control

>  <label>
yes (1)

$$$$
>  <compound>
O=C(c1ccc(F)c(F)c1Nc1ccc(I)cc1F)N1CC(O)([C@@H]2CCCCN2)C1 + Cc1c(S(C)(=O)=O)c(-c2cc(F)cc(N3CCN(c4ccc(NS(=O)(=O)c5ccc(NC(CCN6CCC(C(=O)OCCCP(=O)(O)O)CC6)CSc6ccccc6)c(S(=O)(=O)C(F)(F)F)c5)cc4)CC3)c2)c(-c2ccc(Cl)cc2)n1C(C)C

>  <targetSystem>
521955-158-R2-J5-PDC complex spheroid growth, % test/control

>  <label>
yes (1)

$$$$
>  <compound>
CCN1CCN(Cc2ccc(Nc3ncc(F)c(-c4cc(F)c5nc(C)n(C(C)C)c5c4)n3)nc2)CC1 + CNC(C)C(=O)NC1CN(S(=O)(=O)c2cccc(S(=O)(=O)N3CCC4CCC(C(=O)NC(c5ccccc5)c5ccccc5)N4C(=O)C(NC(=O)C(C)NC)C3)c2)CCC2CCC(C(=O)NC(c3ccccc3)c3ccccc3)N2C1=O

>  <targetSystem>
521955-158-R2-J5-PDC complex spheroid growth, % test/control

>  <label>
no (0)

$$$$
